- Test system: Malme-3M
- METHOD DESCRIPTION: NCI tumour cell line growth inhibition, 48 h
Activity calls are given as the source filed them. Cut-off read from the data, not from the text of the source: active = GI50 up to about 1.1 µM and inactive = higher.
PARAMETER: GI50

See these solved cases before continuing.
MOLECULE: CCCCC(C(=O)CCC(=O)Nc1ccc(Cl)cc1)C(=O)C(C)C (centres undefined)
MEASURED TARGET: Malme-3M
GI50: > 100 µM (inactive)
--
MOLECULE: COc1c(Cl)cc(S(=O)O)cc1Cl
MEASURED TARGET: Malme-3M
GI50: > 100 µM (inactive)
--
MOLECULE: Cn1c(CCC#N)nc2ccc(Br)cc2c1=O
MEASURED TARGET: Malme-3M
GI50: > 100 µM (inactive)

What value of measured GI50 is listed for COC1=CC(C)C2C[C@H]3O[C@H](O)C[C@H]4C(C)C(=O)C(O)C([C@@]2(C)C1=O)[C@@]34C (some centres undefined) ?
> 100 µM (inactive)

What value of measured GI50 is listed for CCOc1ccc2c(c1)c(=O)c1c(NCCN(CC)CC)ccc3nnn2c31 ?
17.1 µM (inactive)

What value of measured GI50 is listed for CC(=O)OCC12C(OC(C)=O)C[C@@H](C)C3(CC(c4ccoc4)OC3=O)C1CCC(OC(C)=O)C21CO1 (some centres undefined) ?
> 100 µM (inactive)

What value of measured GI50 is listed for CCCCCCCCCCCCCC(=O)CSCCNC(=O)CCNC(=O)[C@@H](O)C(C)(C)COP(=O)(O)OP(=O)(O)OCC1OC(n2cnc3c(N)ncnc32)C(O)C1OP(=O)(O)O (some centres undefined) ?
17.9 µM (inactive)

What value of measured GI50 is listed for CN1OC2OC(=O)OC2[C@H]1[C@H]1O[C@H](c2ccccc2)OC1(C)c1cc(OC(=O)c2ccccc2)ccc1OC(=O)c1ccccc1 (some centres undefined) ?
> 50 µM (inactive)

What value of measured GI50 is listed for COC(=O)CN1C(=O)C2(C(=O)OC)OC1(c1ccc([N+](=O)[O-])cc1)C1C(=O)N(c3ccccc3)C(=O)C12 (centres undefined) ?
> 100 µM (inactive)

###

- Tested on: RPMI-8226
- METHOD DESCRIPTION: NCI tumour cell line growth inhibition, 48 h
The source made the active and inactive calls. Cut-off read from the data, not from the text of the source: active = GI50 up to about 1.1 µM and inactive = higher.
I would appreciate it if you answered using one of these outcomes: active, inactive

Consider the following illustrative entries.
MOLECULE: Cc1ccc(NC(=O)CCc2nnc3s/c(=C\c4cccc([N+](=O)[O-])c4)c(=O)n23)cc1
DISCRETE LABEL: inactive

MOLECULE: CCOC(=O)C(CC#Cc1ccc(C#CCC(NC(C)=O)C(=O)OCC)cc1)NC(C)=O (configuration not stated)
DISCRETE LABEL: inactive

MOLECULE: CC(NNC(=O)c1cc[n+]([BH2-]C#N)cc1)c1ccc(F)cc1 (configuration not stated)
DISCRETE LABEL: inactive

Hello, I am checking results. What call was entered for N#Cc1c(N2CCOCC2)ncn(-c2ccccc2)c1=O ?
inactive

Hello, I am checking results. What call was entered for COc1cc(/C=C2/CCS(=O)(=O)c3ccc(C)cc3C2=O)cc(OC)c1OC ?
inactive

Hello, I am checking results. What call was entered for N#Cc1c(-c2ccc(Cl)cc2)cc(-c2ccc(Nc3ccnc4cc(Cl)ccc34)cc2)[nH]c1=O ?
inactive

// data source = ChEMBL document CHEMBL1201862
